Biological target: Stp1 (UniProt B3LFK1)
Sequence: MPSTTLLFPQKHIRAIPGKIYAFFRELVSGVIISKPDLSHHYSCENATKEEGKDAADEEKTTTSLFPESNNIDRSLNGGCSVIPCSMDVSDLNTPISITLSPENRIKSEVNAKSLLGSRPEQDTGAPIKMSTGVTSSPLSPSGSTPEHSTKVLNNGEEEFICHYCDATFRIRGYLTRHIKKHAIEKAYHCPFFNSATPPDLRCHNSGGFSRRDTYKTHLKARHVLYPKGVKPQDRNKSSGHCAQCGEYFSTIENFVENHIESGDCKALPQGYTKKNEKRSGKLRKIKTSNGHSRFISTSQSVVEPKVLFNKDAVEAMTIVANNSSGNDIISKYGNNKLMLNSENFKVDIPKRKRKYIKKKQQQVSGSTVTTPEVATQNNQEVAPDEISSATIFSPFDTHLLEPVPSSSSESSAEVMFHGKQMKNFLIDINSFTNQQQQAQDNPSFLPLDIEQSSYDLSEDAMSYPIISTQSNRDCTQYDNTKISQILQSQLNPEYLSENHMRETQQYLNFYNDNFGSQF
Assay: PBM E-score (8-mer binding enrichment) (E-score (-0.5 to 0.5)); higher = stronger / more preferred TF binding
Conditions: protein concentration: 200 nM; construct: GST-full length
In all, about 33,000 sequences were measured (“E-score (-0.5 to 0.5)”: median about -0.016, highest 2% from about 0.32 on). What follows is part of a selection rich in the highest values, with near analogues and random picks from the rest.
Please use the following PBM E-score ranges when assigning a class: low-valued: < 0.01; mid-valued: ≥ 0.01 and < 0.1; high-valued: ≥ 0.1

Here are 6 sequences together with their reported answers.
biosequence=ATGGTAAA group_label=mid-valued
biosequence=TGGCAAAA group_label=high-valued
biosequence=GGGCAAAA group_label=high-valued
biosequence=ATACCACA group_label=mid-valued
biosequence=AAAGGCTG group_label=low-valued
biosequence=ACACCGCG group_label=mid-valued

Q. Assign a bin to TATCGTCA
A. low-valued

Q. Another sequence to check: AAGCGCTG
A. low-valued

Q. How about this sequence: CGGCAAAA
A. high-valued

Q. Now the same for ATTCCTCA
A. mid-valued

Q. Lookup CGGCAAAG
A. high-valued

###

Target: Stp1 (UniProt B3LFK1)
Sequence: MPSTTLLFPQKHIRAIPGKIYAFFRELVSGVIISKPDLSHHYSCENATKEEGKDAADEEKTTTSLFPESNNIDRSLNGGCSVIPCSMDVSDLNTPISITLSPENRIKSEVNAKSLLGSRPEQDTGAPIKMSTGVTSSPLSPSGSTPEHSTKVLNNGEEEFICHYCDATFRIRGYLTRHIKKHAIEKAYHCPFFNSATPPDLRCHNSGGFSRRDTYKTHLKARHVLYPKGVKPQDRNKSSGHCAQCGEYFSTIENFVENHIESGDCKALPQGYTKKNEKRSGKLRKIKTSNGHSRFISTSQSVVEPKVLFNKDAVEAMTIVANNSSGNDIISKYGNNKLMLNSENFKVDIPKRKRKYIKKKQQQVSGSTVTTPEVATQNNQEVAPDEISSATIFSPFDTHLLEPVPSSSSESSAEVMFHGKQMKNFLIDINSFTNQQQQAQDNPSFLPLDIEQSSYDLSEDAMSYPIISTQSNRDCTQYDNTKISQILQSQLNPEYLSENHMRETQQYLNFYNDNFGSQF
Assay: PBM E-score (8-mer binding enrichment) (E-score (-0.5 to 0.5)); higher = stronger / more preferred TF binding
Details: protein concentration: 200 nM; construct: GST-full length
Over roughly 33,000 sequences, “E-score (-0.5 to 0.5)” has its median near -0.016; the highest 2% begin near 0.32. The list comes from a sample in which the highest values are over-represented; it also holds close analogues and randomly drawn sequences.
Binning rule for recorded PBM E-score: low-valued (below 0.007), mid-valued (0.007 to below 0.3), high-valued (0.3 or more)

biosequence=ATGGAAAC group_label=low-valued
biosequence=AAGACGGC group_label=high-valued
biosequence=ATTGCCGC group_label=high-valued
biosequence=TAGATCAA group_label=low-valued
biosequence=GTTGGCAA group_label=mid-valued

Then this sequence:
Q. Please report the category associated with ACGTGCCT , nothing else.
A. mid-valued

###

Target: Stp1 (UniProt B3LFK1)
Sequence: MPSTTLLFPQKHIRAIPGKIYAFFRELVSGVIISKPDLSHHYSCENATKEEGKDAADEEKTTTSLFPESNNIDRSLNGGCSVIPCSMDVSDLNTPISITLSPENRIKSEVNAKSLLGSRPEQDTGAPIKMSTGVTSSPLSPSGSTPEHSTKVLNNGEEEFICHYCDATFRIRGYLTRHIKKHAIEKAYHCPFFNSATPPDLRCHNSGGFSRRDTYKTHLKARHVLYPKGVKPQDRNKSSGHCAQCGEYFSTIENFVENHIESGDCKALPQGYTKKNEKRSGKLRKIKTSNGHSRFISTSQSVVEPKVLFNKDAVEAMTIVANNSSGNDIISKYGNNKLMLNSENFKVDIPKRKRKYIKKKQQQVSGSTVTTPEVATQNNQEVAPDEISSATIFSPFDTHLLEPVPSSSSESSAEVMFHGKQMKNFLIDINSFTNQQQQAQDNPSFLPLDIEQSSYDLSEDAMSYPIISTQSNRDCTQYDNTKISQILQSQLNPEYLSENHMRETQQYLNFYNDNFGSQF
Assay: PBM E-score (8-mer binding enrichment) (E-score (-0.5 to 0.5)); higher = stronger / more preferred TF binding
Conditions: protein concentration: 200 nM; construct: GST-full length
In all, about 33,000 sequences were measured (“E-score (-0.5 to 0.5)”: median about -0.016, highest 2% from about 0.32 on). The sample as a whole holds a higher share of the highest values than the screen did.
READOUT: PBM E-score
Just the number, please, no unit after it.

Below, each entry is followed by its recorded PBM E-score result.
biosequence=CCGTTTAA data_value=0.349
biosequence=GGACTACC data_value=-0.286
biosequence=GGTGCCGA data_value=0.288

Q. Field request: PBM E-score | item: CCGTTAGC
A. 0.0331

Q. Follow-up item: ACGCGGCA
A. 0.479

Q. Next up: CGTGCCGA
A. 0.352

Q. Lookup GGAGCACC
A. -0.188

Q. Another sequence to check: CGCCTCAC
A. 0.395

Q. Next sequence up: TCCCCAAA
A. -0.0405

Q. How about this sequence: AGAAGTTC
A. 0.0255

Q. Please give the result for AGAAAGCA too.
A. 0.158

Q. Next: CGTGCCGC
A. 0.475

###

Target: Stp1 (UniProt B3LFK1)
Sequence: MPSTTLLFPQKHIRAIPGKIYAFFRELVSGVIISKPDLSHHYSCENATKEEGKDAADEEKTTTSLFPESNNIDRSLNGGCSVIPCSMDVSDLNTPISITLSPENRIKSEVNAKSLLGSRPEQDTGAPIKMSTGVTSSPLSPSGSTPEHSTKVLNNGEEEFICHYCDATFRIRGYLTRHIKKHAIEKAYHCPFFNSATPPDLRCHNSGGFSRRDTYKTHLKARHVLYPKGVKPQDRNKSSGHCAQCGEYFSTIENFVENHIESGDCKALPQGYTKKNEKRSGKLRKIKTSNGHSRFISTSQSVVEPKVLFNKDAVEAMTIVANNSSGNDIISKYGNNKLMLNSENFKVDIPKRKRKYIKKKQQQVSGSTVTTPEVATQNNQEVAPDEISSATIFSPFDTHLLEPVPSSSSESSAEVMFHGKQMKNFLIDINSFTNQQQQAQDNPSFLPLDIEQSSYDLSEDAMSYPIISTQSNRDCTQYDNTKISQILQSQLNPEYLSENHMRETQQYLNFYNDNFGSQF
Test: PBM E-score (8-mer binding enrichment) (E-score (-0.5 to 0.5)); higher = stronger / more preferred TF binding
Settings: protein concentration: 200 nM; construct: GST-full length
Whole data set: some 33,000 sequences, median “E-score (-0.5 to 0.5)” near -0.016, cut for the highest 2% near 0.32. The entries come from a sample that favours the highest values as a whole.
READOUT: PBM E-score
Kindly provide the number alone.

The examples below pair each entry with its known result.
biosequence=AGGCGCAG data_value=0.188
biosequence=CGCATTAC data_value=-0.0452
biosequence=AGCCGCCG data_value=0.361
biosequence=AAGTGTGC data_value=0.122
biosequence=CCTACGGA data_value=-0.13

Q. Using the record for ACCCCGCT , report its PBM E-score.
A. -0.174

Q. Lookup GAAGTGAC
A. -0.0146

###

Target: Stp1 (UniProt B3LFK1)
Sequence: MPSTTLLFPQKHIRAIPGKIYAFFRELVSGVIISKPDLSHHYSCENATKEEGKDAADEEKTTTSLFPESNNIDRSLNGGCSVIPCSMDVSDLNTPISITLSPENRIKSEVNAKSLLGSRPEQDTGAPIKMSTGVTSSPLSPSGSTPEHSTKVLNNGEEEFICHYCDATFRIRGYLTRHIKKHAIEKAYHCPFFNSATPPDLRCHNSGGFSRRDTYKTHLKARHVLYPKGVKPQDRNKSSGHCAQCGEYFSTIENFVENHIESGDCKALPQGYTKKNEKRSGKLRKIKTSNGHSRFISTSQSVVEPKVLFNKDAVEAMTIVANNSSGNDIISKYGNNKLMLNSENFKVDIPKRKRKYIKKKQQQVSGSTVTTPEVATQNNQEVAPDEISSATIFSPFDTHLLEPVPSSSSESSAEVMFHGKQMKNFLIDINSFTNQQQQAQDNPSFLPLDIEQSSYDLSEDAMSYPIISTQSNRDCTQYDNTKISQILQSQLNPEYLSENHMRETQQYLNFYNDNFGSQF
Assay: PBM E-score (8-mer binding enrichment) (E-score (-0.5 to 0.5)); higher = stronger / more preferred TF binding
Conditions: protein concentration: 200 nM; construct: GST-full length
Whole data set: some 33,000 sequences, median “E-score (-0.5 to 0.5)” near -0.016, cut for the highest 2% near 0.32. The sample holds the highest values, similar sequences and a random draw of the others, so the mix is not that of the screen.
Output: class label from PBM E-score. Mapping: category 1 = under -0.06, category 2 = from -0.06 up to 0.1, category 3 = 0.1 and over

Check out these entries, answers already filled in.
biosequence=AGGGGACA test_target="Stp1 (UniProt B3LFK1)" group_label="category 1"
biosequence=AACTGTCA test_target="Stp1 (UniProt B3LFK1)" group_label="category 2"
biosequence=AAAGCGGC test_target="Stp1 (UniProt B3LFK1)" group_label="category 3"
biosequence=ACATGGCT test_target="Stp1 (UniProt B3LFK1)" group_label="category 1"
biosequence=ACCCGTAG test_target="Stp1 (UniProt B3LFK1)" group_label="category 1"

Now for a further sequence.
Q. Band of CTCCGTAC ?
A. category 3
